- experiment_notes: self-splicing fitness, log relative to wild type (ln ratio); higher = more splicing; Tetrahymena group I intron in knt gene, E. coli kanamycin selection, DiMSum; sequences stand for … in CUCUCU…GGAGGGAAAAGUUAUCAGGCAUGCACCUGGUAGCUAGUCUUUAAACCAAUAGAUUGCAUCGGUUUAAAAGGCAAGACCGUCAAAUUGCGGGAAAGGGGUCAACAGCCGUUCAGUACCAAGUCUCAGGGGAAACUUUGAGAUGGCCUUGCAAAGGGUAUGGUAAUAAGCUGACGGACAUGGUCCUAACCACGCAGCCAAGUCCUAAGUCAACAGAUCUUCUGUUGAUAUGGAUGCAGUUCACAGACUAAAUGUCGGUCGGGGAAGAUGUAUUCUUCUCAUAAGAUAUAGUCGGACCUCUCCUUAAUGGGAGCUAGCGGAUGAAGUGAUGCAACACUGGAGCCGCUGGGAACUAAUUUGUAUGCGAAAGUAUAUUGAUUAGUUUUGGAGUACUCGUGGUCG;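 further: selection with 25 µg/mL kanamycin versus none on LB agar overnight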
- condition_label: 37 °C
metric_name: self-splicing fitness (ln)
Please respond with just the number, no unit label.

Any idea what its self-splicing fitness (ln) is? The sequence is `ACCGAGCAAUAUUACGCUGG` -2.13

Any idea what its self-splicing fitness (ln) is? The sequence is `UUGAAGCAAUAUUACGUGUU` -1.92

Any idea what its self-splicing fitness (ln) is? The sequence is `ACAAAGCAAUAUUACGGCAG` -0.658

Any idea what its self-splicing fitness (ln) is? The sequence is `ACUCAGCAAUAUUACGUUAU` -1.27

Any idea what its self-splicing fitness (ln) is? The sequence is `CAGCAGCAAUAUUACGCCCU` 0.0797

Any idea what its self-splicing fitness (ln) is? The sequence is `CAGGAGCAAUAUUACGAAUG` -2.76
